Value source: patent US20220389008A1

Test system: Mycobacterium tuberculosis (strain H37Ra), cyt bd
applied.conditions: Mtb H37Ra; test compound 10 μM after Compound X 0.9 μM, then CCCP 1 μM
property.label: (ii) % OCR after cccp (%)

structure	quantity.unit	experimental.value
COc1cc2nc(-c3[nH]c4ccccc4c(=O)c3C)nn2cc1F	%	134.33
Cc1c(-c2nc3ccc(-c4cnn(CC(F)(F)F)c4)cn3n2)[nH]c2ccccc2c1=O	%	182.7
Cc1c(-c2nc3ccc(-c4cccc(OC(F)(F)F)c4)cn3n2)[nH]c2ccccc2c1=O	%	54.6
Cc1c(-c2nc3ccc(-c4ccc(C(F)(F)F)s4)cn3n2)[nH]c2ccccc2c1=O	%	69.17
COc1ccc2[nH]c(-c3nc4ccc(-c5ccc(OC(F)(F)F)cc5)cn4n3)c(C)c(=O)c2c1	%	138
CNC(=O)c1c(-c2nc3ccc(-c4nc(C(F)(F)F)cs4)cn3n2)[nH]c2ccccc2c1=O	%	117.59
Cc1c(-c2nc3ccc(-c4nnc(C(F)(F)F)s4)cn3n2)[nH]c2ccccc2c1=O	%	154.34
CN(C)C(=O)c1c(-c2nc3ccc(-c4ccc(OC(F)(F)F)cc4)cn3n2)[nH]c2ccccc2c1=O	%	120.39
Cc1c(-c2cn3cc(Cc4ccc(OC(F)(F)F)cc4)ccc3n2)[nH]c2ccccc2c1=O	%	157.9
Cc1c(-c2cn3ccc(Cc4ccc(OC(F)(F)F)cc4)cc3n2)[nH]c2ccccc2c1=O	%	148.1
Cc1c(-c2nc3ccc(-c4nc(C(F)(F)F)cs4)cn3n2)[nH]c2ccccc2c1=O	%	98.7
Cc1c(-c2nc3cc(Br)ccn3n2)[nH]c2ccccc2c1=O	%	133.8
Cc1c(-c2nc3ccc(-c4ccc(F)nc4)cn3n2)[nH]c2ccccc2c1=O	%	155.2
COc1cc2[nH]c(-c3nc4ccc(-c5ccc(OC(F)(F)F)cc5)cn4n3)c(C)c(=O)c2cc1OC	%	165.65
Cc1c(-c2nc3ccc(-c4cc(F)cc(F)c4)cn3n2)[nH]c2ccccc2c1=O	%	76
Cc1c(-c2cc3cc(-c4ccc(OC(F)(F)F)cc4)ccn3c2)[nH]c2ccccc2c1=O	%	114.3
COc1cc2[nH]c(-c3nc4ccc(Br)cn4n3)c(C)c(=O)c2cc1OC	%	171.2
Cc1c(-c2nc3ccc(-c4ccc(OC(F)(F)F)cc4)cn3n2)[nH]c2ccc(F)cc2c1=O	%	38.75
Cc1c(-c2nc3ccc(-c4ncc(C(F)(F)F)s4)cn3n2)[nH]c2ccccc2c1=O	%	132.68
Cc1c(-c2cn3ccc(Oc4ccc(OC(F)(F)F)cc4)cc3n2)[nH]c2ccccc2c1=O	%	118.5
Cc1c(-c2nc3ccc(-c4ccc(OC(F)(F)F)nc4)cn3n2)[nH]c2ccccc2c1=O	%	116.7
COc1cc2c(=O)c(C)c(-c3nc4ccc(-c5ccc(OC(F)(F)F)cc5)cn4n3)[nH]c2cc1Cl	%	178.3
Cc1c(-c2nc3ccc(OC(F)(F)F)cn3n2)[nH]c2ccccc2c1=O	%	120.2
Cc1c(-c2nc3ccc(-c4nc(C(F)(F)F)ns4)cn3n2)[nH]c2ccccc2c1=O	%	132.88
Cc1c(-c2nc3ccc(-c4nc(C(F)(F)F)no4)cn3n2)[nH]c2ccccc2c1=O	%	113.29
Cc1c(-c2nc3cc(C(F)(F)F)c(-c4ccccc4)cn3n2)[nH]c2ccccc2c1=O	%	103.4
